System: A549/ATCC NSCLC
Assay: NCI-60 one-dose screen, 48 h
Conditions: 10 µM unless noted
Compounds without any hit were thinned out: in the full panel of roughly 83,000, 20% have a hit. Calls of active or inactive are those of the source. The calls were made as follows: active = growth percent below 10; inactive = the rest.
Respond using exactly one of the listed classes: active, inactive

These solved cases illustrate the format of a correct answer.
Structure string	Study system	Group
O=C(NNc1nc2cc(F)c(F)cc2n2cccc12)c1ncccn1	A549/ATCC NSCLC	inactive
O=C1Nc2ccc(Cl)cc2/C1=C/c1ccc(OCc2ccc(F)cc2)cc1	A549/ATCC NSCLC	inactive

Answer briefly: the call reported for CC(=O)NC(C)(C)C(=O)N1CCC[C@H]1C(=O)NC(C)(C)C(=O)N[C@@H](C)C(=O)NC(C)(C)C(=O)NC(C)(C)C(=O)N[C@@H](CCC(N)=O)C(=O)NC(C)(C)C(=O)N[C@H](C(=O)NC(C)(C)C(=O)NCC(=O)N[C@@H](CC(C)C)C(=O)NC(C)(C)C(=O)N1CCC[C@H]1C(=O)N[C@H](C(=O)NC(C)(C)C(=O)NC(C)(C)C(=O)N[C@@H](CCC(N)=O)C(=O)N[C@@H](CCC(N)=O)C(=O)N[C@H](CO)Cc1ccccc1)C(C)C)C(C)C in this assay.
inactive

Answer briefly: the call reported for CC(C)c1nn(-c2ccccc2)c(N2CCCCC2)c1/C=N/NC(N)=S in this assay.
inactive

Answer briefly: the call reported for COc1ccc(Cn2cc3c(c2-c2ccccc2)CCCc2cnoc2-3)cc1[N+](=O)[O-] in this assay.
inactive

Answer briefly: the call reported for CCCCCCNC(=O)Oc1ccc(/C(=C(\C)c2ccc(Cl)cc2)c2ccc(OCCN(C)C)cc2)cc1 in this assay.
inactive

----------
Test system: DU-145 prostate
Experiment: NCI-60 one-dose screen, 48 h (100 = growth as untreated, 0 = no growth, -100 = all killed)
Settings: 10 µM unless noted
About 83,000 compounds went through this panel and 20% of them were active in at least one assay; those are over-represented in the sample as a whole. The source made the active and inactive calls. The calls were made as follows: active = growth percent below 10; inactive = the rest.
Readout type: growth

The cases that follow already have their growth on record.
> print(dat)
                           structure.string        meas.value
1  CC(=O)Nc1cccc(-n2cnc3cc(-c4ccc(O)cc4)ccc32)c1  27.9% (inactive)
2  COc1ccc([C@H]2c3[nH]c4ccccc4c3C[C@@H]3C(=O)N(C4CCN(Cc5ccccc5)CC4)CC(=O)N23)c(OC)c1  86.3% (inactive)
3  CN1CCN(c2ccc3c(C(N)=O)c(NC(=O)c4ccc(C(C)(C)C)cc4)sc3c2)CC1  87.4% (inactive)
4  O=C1c2c(c3c4cccnc4[nH]c3c3ccc4ccccc4c23)C(=O)N1CCN1CCOCC1  59.9% (inactive)

Here's the next entry for you.
Write down growth measured for item CC(C)N=C(N/C(N)=N/c1nc2ccccc2s1)NC(C)C
85.6% (inactive)

----------
System: K-562 leukemia
Assay: NCI-60 one-dose screen, 48 h (100 = growth as untreated, 0 = no growth, -100 = all killed)
Conditions: 10 µM unless noted
About 83,000 compounds went through this panel and 20% of them were active in at least one assay; those are over-represented in the sample as a whole.
Readout type: growth (%)
Give just the numeric value; % need not be written.

The cases that follow already have their growth on record.
> print(dat)
                                   compound  meas.value
1  CCC(CC)n1c(=O)c(SC2=NC3C(NN2)N(CC)C(=O)N3CC)c(C(=O)O)c2ccccc21 (stereo not given)        11.1
2  c1ccc(-c2c(-c3ccccc3)[n+](Cc3ccc4ccccc4c3)c(-c3ccccc3)n2Cc2ccc3ccccc3c2)cc1       -30.9
3  Cc1occc1-c1nc2s/c(=C\c3cn(-c4ccccc4)nc3-c3ccccc3)c(=O)n2n1         106
4     Oc1ccc(CSc2nnc(-c3ccccc3)o2)c2cccnc12        10.4

Here's the next entry for you.
Write down growth measured for item O=C1c2cc(Br)ccc2-n2c1nc1cc(Br)ccc1c2=O
73.9

----------
Measured growth, listed per entry for reference.
Test system: HCT-116 colon
Assay: NCI-60 one-dose screen, 48 h (100 = growth as untreated, 0 = no growth, -100 = all killed)
Conditions: 10 µM unless noted
About 83,000 compounds went through this panel and 20% of them were active in at least one assay; those are over-represented in the sample as a whole.
Give just the numeric value; % need not be written.

The cases that follow already have their growth on record.
Molecule	Unit string	growth
O=S(=O)(Nc1ccc(-n2cnc3cc(-c4ccc(O)cc4)ccc32)cc1)C1CC1	%	92.7
Oc1ccc(-c2nnc(SCc3ccc(O)c4ncccc34)o2)cc1	%	7.61
COc1cc(/C=N/n2cnc3oc(-c4ccccc4)cc3c2=N)cc(CN2CCN(C)CC2)c1O	%	80.6
CCc1ccc(NC(=O)N[C@@H](Cc2cc(F)cc(F)c2)C(=O)N[C@@H]2C(=O)N3CCC[C@H]3C(=O)N3CCO[C@H](C)[C@H]3C(=O)N[C@@H](CO)C(=O)N3C[C@H](C)C[C@H]3C(=O)O[C@H]2C)c(F)c1	%	11.6
COc1ccc2oc3c4[nH]c5ccccc5c4c4c(c3c2c1)C(=O)N(O)C4=O	%	104
CCCCSc1nnc(-c2ccc(-c3ccc(Cl)cc3)nc2C)o1	%	98

State growth (HCT-116 colon) of C=C(C)C(=O)O[C@H]1C[C@@]2(C)OC(=CC2=O)/C(CO)=C\[C@H]2OC(=O)C(=C)[C@H]12 .
-53.7

State growth (HCT-116 colon) of NC(=O)N1N=C(c2cc3ccccc3oc2=O)CC1c1cn(-c2ccccc2)nc1-c1ccc(Cl)cc1 (stereo not drawn) .
26.7

----------
Test system: UO-31 renal
Test: NCI-60 one-dose screen, 48 h (100 = growth as untreated, 0 = no growth, -100 = all killed)
Conditions: 10 µM unless noted
Compounds without any hit were thinned out: in the full panel of roughly 83,000, 20% have a hit. Activity calls are given as the source filed them. The calls were made as follows: active = growth percent below 10; inactive = the rest.
Measured growth, listed per entry for reference.

The cases that follow already have their growth on record.
> print(dat)
                                   molecule  study.system  readout.type        meas.value
1  O=C(NNc1nc2cc(F)c(F)cc2n2cccc12)c1cccnn1   UO-31 renal        growth  13.3% (inactive)
2  CN1CCN(c2nc(-c3cnc4ccccc4n3)cc3ccccc23)CC1   UO-31 renal        growth  63.2% (inactive)
3  Nc1nc(N)c2c(n1)NC(c1ccccc1)CC(c1ccc(Nc3nc(NCCO)nc(Nc4ccc(Cl)cc4)n3)cc1)=N2 (stereo not given)   UO-31 renal        growth  43.9% (inactive)
4  O=C(NCCCNc1cc(-c2cn(-c3ccccc3)nc2-c2cccc(O)c2)ccn1)Nc1cccc(C(F)(F)F)c1   UO-31 renal        growth  23.8% (inactive)
5  NC(=O)c1c(NC(=O)c2cccc(C(F)(F)F)c2F)sc2c1CCC(=O)C2   UO-31 renal        growth   -7.62% (active)
6  O=C(NNc1nc2cc(F)cc(F)c2n2cccc12)c1ccncn1   UO-31 renal        growth  17.3% (inactive)
7  O=C(CCCCCCN1CC(=O)N2[C@@H](c3cccc(Br)c3)c3[nH]c4ccccc4c3C[C@H]2C1=O)NO   UO-31 renal        growth  46.2% (inactive)
8  Oc1ccc(CSc2nnc(-c3cnccn3)n2-c2ccccc2)c2cccnc12   UO-31 renal        growth  10.7% (inactive)

Write down growth measured for item Oc1ccc(CSc2nnc(-c3ccncc3)n2-c2ccccc2)c2cccnc12
9.11% (active)

Write down growth measured for item O=c1oc2ccc(-c3ccc(F)cc3F)cc2c(=O)n1-c1ccc(F)c(F)c1
-12.4% (active)

Write down growth measured for item Cc1cc2nc(C(Cl)Cl)nc(-c3ccco3)n2n1
90.7% (inactive)

Write down growth measured for item O=S(=O)(NCCCNc1nccc(-n2cnc3ccccc32)n1)c1ccc(F)cc1
59.3% (inactive)

Write down growth measured for item COc1ccc2oc3c4[nH]c5ccccc5c4c4c(c3c2c1)C(=O)N(O)C4=O
82.2% (inactive)

Write down growth measured for item O=C1Nc2cc(OC(F)(F)F)ccc2Oc2ccc(-c3ccnc(N4CC[C@H](O)C4)c3)cc21
24% (inactive)

Write down growth measured for item COc1ccc(-c2no[n+]([O-])c2Nc2ccccc2Br)cc1
69.6% (inactive)

Write down growth measured for item O=C1NC(=O)c2c1c1c3ccccc3ccc1c1[nH]c3ccccc3c21
-4.64% (active)

----------
System: OVCAR-8 ovarian
Assay: NCI-60 one-dose screen, 48 h
Conditions: 10 µM unless noted
About 83,000 compounds went through this panel and 20% of them were active in at least one assay; those are over-represented in the sample as a whole. Active and inactive are the calls of the source. Rule for the calls: active = growth percent below 10; inactive = the rest.
Respond using exactly one of the listed classes: 1 (yes) (active), 0 (no) (inactive)

These solved cases illustrate the format of a correct answer.
> print(dat)
                                    compound    group
 1  O=C1NC(=O)c2c1c1c3ccccc3ccc1c1[nH]c3ccccc3c21  1 (yes)
 2  CC(=O)c1sc(Nc2cccc(Nc3nc(C)c(C)s3)c2)nc1C   0 (no)
 3  COc1ccc(NC(=O)[C@H](C)NC(=O)OC(C)(C)C)cc1C(=O)Nc1cccc(-c2cc(=O)c3c(OC)c(OC)c(OC)cc3o2)c1  1 (yes)
 4  C=CCn1c(SCC(=O)Nc2ccc(OC)cc2)nnc1-c1ccc(Cl)cc1   0 (no)
 5  COc1ccc(Cn2cc3c(c2-c2cc(OC)c(OC)c(OC)c2)CCCc2cnoc2-3)cc1N   0 (no)
 6  Oc1ccc(CSc2nnc(-c3ccncc3)n2-c2ccccc2)c2cccnc12   0 (no)
 7  O=C1[C@@H]2Cc3c([nH]c4ccccc34)[C@H](c3c(Cl)cccc3Cl)N2C(=O)CN1C1CCN(Cc2c(F)cccc2F)CC1   0 (no)
 8  COc1ccc(Cn2cc3c(c2-c2ccccc2)CCCc2cnoc2-3)cc1[N+](=O)[O-]   0 (no)
 9       CN(C)CCn1c2ccc(N)cc2c2nc3ccccc3nc21   0 (no)
10  CC1CCc2c(sc3nc(SCC(=O)N/N=C/c4ccc(Cl)cc4)n(-c4ccccc4)c(=O)c23)C1 (centres undefined)   0 (no)

Answer briefly: the call reported for O=C(O)CNS(=O)(=O)c1ccc(Oc2ccc(S(=O)(=O)NCC(=O)O)cc2)cc1 in this assay.
0 (no)

Answer briefly: the call reported for Cn1cc(-c2nnc(N)nc2-c2cn(C)c3ccc(F)cc23)c2cc(F)ccc21 in this assay.
0 (no)

Answer briefly: the call reported for Cc1cc(C(=O)Nc2ccc(SC#N)cc2)c(C)o1 in this assay.
0 (no)

Answer briefly: the call reported for COc1ccc(-c2nnc(SCc3ccc(O)c4ncccc34)n2-c2ccccc2)cc1 in this assay.
0 (no)

Answer briefly: the call reported for O=C(Cn1cc(CN2C(=O)c3ccc([N+](=O)[O-])cc3C2=O)nn1)Nc1ccccc1Br in this assay.
0 (no)

Answer briefly: the call reported for C/C(=C(/C)C1CC1CCN(C(=O)c1ccc([N+](=O)[O-])cc1)S(=O)(=O)c1ccc(C)cc1)C1CCCCC1 (centres undefined) in this assay.
0 (no)

Answer briefly: the call reported for C=CCn1c(SCC(=O)Nc2cccc(C(=O)/C=C/c3ccc(C)cc3)c2)nc2ccccc2c1=O in this assay.
0 (no)

Answer briefly: the call reported for CN1CCN(c2ccc3c(c2)nc(NNC(=O)c2ccncn2)c2cccn23)CC1 in this assay.
0 (no)

Answer briefly: the call reported for Fc1ccc(-c2cc3nc(C(Cl)Cl)nc(-c4cccs4)n3n2)cc1 in this assay.
0 (no)
